System: ACHN renal
PROTOCOL_DESCRIPTION: NCI tumour cell line growth inhibition, 48 h

{"COMPOUND": "N#CC1=C(N)Oc2c(sc3c(Br)cccc23)C1c1ccc(F)cc1 (stereo not given)", "GI50": "0.682 µM"}
{"COMPOUND": "Cc1cc(S(N)(=O)=O)c(S/C(=N\\NS(=O)(=O)c2ccccc2)c2ccc(Cl)c(Cl)c2)cc1Cl", "GI50": "30 µM"}
{"COMPOUND": "COc1ccc(-c2cn(-c3cc(OC)c(OC)c(OC)c3)c(=O)n2-c2ccccc2)cc1", "GI50": "> 100 µM"}
{"COMPOUND": "COc1cccc(C2CC(=O)Nc3cc4c(cc32)CCC4)c1OC (stereo not given)", "GI50": "6.72 µM"}
{"COMPOUND": "CN1CCN(CCCOc2ccc3ncnc(Nc4ccc(Oc5cccc(F)c5)c(Cl)c4)c3c2)CC1", "GI50": "1.02 µM"}

----------
Parameter GI50: see the listing below.
Test system: BT-549 breast
PROTOCOL_DESCRIPTION: NCI tumour cell line growth inhibition, 48 h

{"COMPOUND": "COc1ccc(-c2conc2-c2ccccc2)cc1", "GI50": "940 nM"}
{"COMPOUND": "NCCNc1nc2ccccc2c2c(=O)c3cc(F)cc(Cl)c3sc12", "GI50": "1550 nM"}
{"COMPOUND": "C#CCn1cc(C=C2C(=O)NC(=S)NC2=O)c2cc(Cl)ccc21", "GI50": "1910 nM"}
{"COMPOUND": "Cc1cc(C(=O)Nc2cc(Nc3ncccc3-c3ncnc4nc[nH]c34)ccc2F)cc(C(C)(C)C#N)c1", "GI50": "2950 nM"}
{"COMPOUND": "N#CC1=C(N)NC(=S)C(C#N)C12Nc1ccccc1S2 (stereo not drawn)", "GI50": "21700 nM"}
{"COMPOUND": "COc1ccc(-c2nn(-c3cccc(Cl)c3)cc2-c2cc(-c3cccs3)no2)cc1", "GI50": "4990 nM"}
{"COMPOUND": "CC(=O)c1c(Nc2ccc(F)c(F)c2F)[nH]c2c(F)cc(F)cc2c1=O", "GI50": "335 nM"}
{"COMPOUND": "O=C(Nc1cccc(Cl)c1)c1cc(Cl)ccc1O", "GI50": "362 nM"}
{"COMPOUND": "N#CC1=C(N)Oc2c(sc3c(Br)cccc23)C1c1ccc(F)cc1 (stereo not drawn)", "GI50": "1010 nM"}
{"COMPOUND": "CCOC(=O)/N=c1\\ssc(Cl)c1Cl", "GI50": "2770 nM"}
{"COMPOUND": "CCCCCCCCCCCCCCCCCCNC(=O)[C@H]1CSC(c2ccc(F)c(OC)c2)N1 (stereo partly drawn)", "GI50": "974 nM"}
{"COMPOUND": "Cc1cc2c(-c3nc4ccccn4c3NC34CC5CC(CC(C5)C3)C4)c(O)c(O)cc2c(O)c1-c1c(C)cc2c(-c3nc4ccccn4c3NC34CC5CC(CC(C5)C3)C4)c(O)c(O)cc2c1O", "GI50": "105 nM"}
{"COMPOUND": "C/C(=N\\O)[C@H]1CC[C@@]2(C)[C@@H]3CC[C@H]4C(C)(C)/C(=N/O)CC[C@@]45CC35CC[C@]12C (stereo partly drawn)", "GI50": "2650 nM"}
{"COMPOUND": "CCOC(=O)C(=Cc1c(-c2ccccc2)[nH]c2ccccc12)C(=O)OCC", "GI50": "5170 nM"}
{"COMPOUND": "O=c1c2ccccc2c(=O)c2c1sc1c(=O)c3ccc(O)cc3c(=O)c12", "GI50": "163 nM"}
{"COMPOUND": "CCn1c(-c2nonc2N)nc2c(C#CC(C)(C)O)ncc(OC[C@@H]3CCCN3)c21", "GI50": "4770 nM"}
{"COMPOUND": "COc1ccc2c(c1)c(-c1cc(-c3cn(C)c4ccc(OC)cc34)[nH]n1)cn2C", "GI50": "> 100000 nM"}
{"COMPOUND": "O=C(Nc1nc2ccc(F)cc2s1)c1cccnc1Nc1ccc(Cl)cc1Cl", "GI50": "2970 nM"}

The reported measurements were obtained from PubChem BioAssay (NCI).
